- Target of assay: T1, Synthetic TMEM97 (144-176) peptide
- T1 construct: Synthetic peptide; also called (predicted) cytoplasmic segment
- T1 peptide: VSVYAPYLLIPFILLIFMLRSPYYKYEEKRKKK
- Assay text: SPR
Square brackets hold non-standard residues; d marks the D form. Ends that are not written are not given here. pS = N[C@@H](COP(=O)(O)O)C(=O)O
Below: a set of entries, each annotated with reported Kd.
Express your answer in nM, writing the number without its unit.

Previously resolved entries follow.
Binder	Experimental result
DSHEKRHHGYRRKFHEKHH (not fully specified (residue 2); ends and bridges not checked) [Hst1(1-19)]	8800
D[pS]HEKRHHGYRRKFHEKHHSHREFPFYGDYGSNYLYDN (Synthetic linear peptide made by Fmoc solid-phase synthesis; also called Hst1(1-38); H1) [Histatin 1 (Hst1)]	2400

Kindly review the next binder as well.
Exercise: Look up Kd for this binder: DSHEKRHHGYRRKFHEKHHSHREFPF (not fully specified (residue 2); ends and bridges not checked, Fragment of Hst1) [Hst1(1-26)]
Key: 1700
